Every entry's value here was drawn from the supplement of paper PMC11451515.

Test system: P12-Ichikawa
experiment.description: cell viability relative to DMSO control; higher = less cytotoxic
condition.label: RPMI 5 mM glucose + 10% FBS; 48 h; 0.19 µM
experimental.readout: cell viability

1. COc1cc(CNC(=O)CCCC/C=C/C(C)C)ccc1O 119%
2. OC[C@H]1O[C@@H]2[C@@H](OC\3=N\C(=N)\C=C/[N@@]23)[C@@H]1O 47.3%
3. Cc1nc(Nc2n[nH]c3c2CN(C(=O)N[C@H](CN(C)C)c2ccccc2)C3(C)C)c2sccc2n1 59.3%
4. COC1=CC=C(C=C1O)C/2=C/C(=O)C3=C(O2)C=C(O[C@@H]4O[C@H](CO[C@@H]5O[C@@H](C)[C@H](O)[C@@H](O)[C@H]5O)[C@@H](O)[C@H](O)[C@H]4O)C=C3O 116%
5. OCCn1cc(-c2cnc3nnn(Cc4ccc5ncccc5c4)c3n2)cn1 122%
6. COC(=O)N1CC2(CC2)C[C@H](C(=O)NO)[C@H]1C(=O)N1CCN(c2ccccc2)CC1 143%
7. Nc1nc(Cl)nc2c1ncn2[C@@H]1O[C@H](CO)[C@@H](O)[C@@H]1F 13.6%
8. CO/N=C(\C(=O)N[C@@H]1C(=O)N2C(C(=O)OCOC(=O)C(C)(C)C)=C(/C=C\c3scnc3C)CS[C@H]12)c1csc(N)n1 103%
9. C1CCN2C[C@H]3C[C@H](\C=C/4CCCN[C@@H]34)[C@H]2C1 123%
